# experimental details: NCI Yeast Anticancer Drug Screen. Data for the mlh1 rad18 strain (AID 175)
# settings: S. cerevisiae mlh1 rad18 strain growth inhibition; at 50.0 µM unless noted
About 79,000 compounds went through this panel and 15% of them were active in at least one assay; those are over-represented in the sample as a whole. The source made the active and inactive calls. No stated cut-off is given here; in the data, active means growth inhibition above about 70%; inactive means the rest.
Outcomes: 1 (yes) for active, 0 (no) for inactive

INSERT INTO results (compound, category) VALUES
  ('CC1CC(NC(=S)N(C)C)CC(C)(C)C1 (stereo not drawn)', '0 (no)'),
  ('OC(CN1CCCC2CCCCC21)c1cc2c(c3ccccc13)CCCC2 (stereo not drawn)', '1 (yes)'),
  ('O=c1ccn(C2OC(COC3CCCCO3)C(OC3CCCCO3)C2OC2CCCCO2)c(=O)n1-c1ccccc1 (stereo not drawn)', '0 (no)'),
  ('Cc1ccc(O)c(Cl)c1C', '0 (no)'),
  ('O=C(O)c1nc2cn1/C=C\C=NCC1=CN3C=CC=NC3(C(=O)O)N1C2 (stereo not drawn)', '0 (no)'),
  ('CCOC(=O)C(CCc1ccccc1)(NC(C)=O)C(=O)OCC', '0 (no)'),
  ('Cc1cc(=O)n2nc(CCl)sc2n1', '0 (no)'),
  ('CC(C)CCCC(C)C1CCC2C3CC4OC45CC(O)CCC5(C)C3CCC12C (stereo not drawn)', '0 (no)'),
  ('CCCc1ccc(C)c(Br)c1', '0 (no)'),
  ('Cc1c(CCCl)c(N=P(c2ccccc2)(c2ccccc2)c2ccccc2)n2c(nc3ccccc32)c1C#N', '0 (no)'),
  ('O=C(Nc1ccc(Cl)c(Cl)c1)N(CCO)Cc1ccccc1', '1 (yes)'),
  ('Cc1[nH]c(=O)nc(N/N=C/c2ccc(Cl)cc2)c1C(=O)NC(C)(CO)CO', '0 (no)'),
  ('CCCCCCCCSC(=N)N', '0 (no)'),
  ('COc1cc(/C=C/C(=O)c2c(=O)o[nH][n+]2-c2ccccc2)ccc1[O-]', '0 (no)'),
  ('Cc1ccc2ccc3ccccc3c2c1', '0 (no)'),
  ('C=C(C)C1CCC2(C)CCC(=O)C(C)=C2C1 (stereo not drawn)', '0 (no)'),
  ('COc1ccc(NC(C)=O)cc1', '0 (no)'),
  ('O=C(COc1ccc(Cl)cc1)N1CCN(C(=O)COc2ccc(Cl)cc2)c2ccccc21', '0 (no)'),
  ('COC1C(O)C(n2ncc3c(SC)nc(SC)nc32)OC1C(O)CO (stereo not drawn)', '0 (no)'),
  ('CCCCN=C(N)C(N)=NCCCC', '0 (no)'),
  ('O=C1C(c2ccccc2)=C(c2ccccc2)C1(Cl)Cl', '1 (yes)'),
  ('Nc1ccccc1NC(=O)C(F)(F)C(F)(F)C(F)(F)C(=O)Nc1ccccc1N', '0 (no)'),
  ('O=C(NC(NC(=O)c1ccccc1)c1ccccc1)c1ccccc1', '0 (no)'),
  ('CCOC(=O)c1nnsc1N/N=C\c1ccc([N+](=O)[O-])cc1', '0 (no)'),
  ('Cc1cc(O)cc(C)c1O', '0 (no)'),
  ('CC(C)N(C(=O)C12C3C4C1C1C2C3C41C(=O)N(C(C)C)C(C)C)C(C)C (stereo not drawn)', '0 (no)'),
  ('O=C(c1ccc(-c2ccccc2)cc1)c1ncc(-c2ccc(-c3ccccc3)cc2)[nH]1', '0 (no)'),
  ('CCOC(=O)C1=CC(C(=O)OCC)=C2C=CC=C3C=CC=C1N32', '0 (no)'),
  ('CC1=C(C(=O)Nc2cc(=O)n(C)c(=O)n2C)C(c2ccco2)C(C(=O)Nc2cc(=O)n(C)c(=O)n2C)=C(C)N1', '0 (no)'),
  ('CC(C)(CBr)CC(=O)NC1CCCCC1', '0 (no)'),
  ('CC1(c2nc3ccccc3[nH]2)CCC(C(N)=O)C(C)(C)O1 (stereo not drawn)', '0 (no)'),
  ('Cc1ccc(Nc2nc(N)nc3c2ncn3C2OC(CO)C(O)C2O)cc1 (stereo not drawn)', '0 (no)'),
  ('CCCCCCCCCc1cc(=O)c2c(O)cccc2o1', '0 (no)'),
  ('ClB1NB(Cl)NB(Cl)N1', '0 (no)'),
  ('CC(CC(=O)c1cccc2ccccc12)C(=O)O (stereo not drawn)', '0 (no)'),
  ('CCOC(=O)C1(C#N)C(C#N)(C#N)C1(CC)CC (stereo not drawn)', '0 (no)'),
  ('O=C(O)/C(Cc1cn[nH]n1)=N\O', '0 (no)'),
  ('CC1=C(C)C(C#N)(C(=O)CBr)C(=N)O1 (stereo not drawn)', '0 (no)'),
  ('c1ccc(CC2=NCCO2)cc1', '0 (no)'),
  ('CCOC(OCC)C1(C)CC=CCC1 (stereo not drawn)', '0 (no)'),
  ('CN(N=O)C(=O)NCCCCCNC(=O)N(C)N=O', '0 (no)'),
  ('N#CCCN1CCCC(=O)NC1=O', '0 (no)'),
  ('COC(=O)c1ccccc1CC1Cc2ccc3c(c2C1=O)CCCC3 (stereo not drawn)', '0 (no)');
